Here's a batch of compounds along with measured IC50 for Angiotensin-converting enzyme (Rattus norvegicus, UniProt P47820).
metric: IC50 (nM)

Example entries begin here.
- test.smiles: "C[C@H](CS)C(=O)N1CC2(C[C@H]1C(=O)O)SCCS2"
  IC50 [nM]: 6.5
- test.smiles: "C[C@H](N[C@@H](CCc1ccccc1)C(=O)O)C(=O)N1C[C@@H](C2CCCCC2)C[C@H]1C(=O)O"
  IC50 [nM]: 5
- test.smiles: "C[C@H](CS)C(=O)N1C[C@@H](O)C[C@H]1C(=O)O"
  IC50 [nM]: 8.6
- test.smiles: "C[C@H](N[C@@H](CCc1ccccc1)C(=O)O)C(=O)N1C[C@H](Sc2ccccc2)C[C@H]1C(=O)O"
  IC50 [nM]: 2
- test.smiles: "CS[C@H]1C[C@@H](C(=O)O)N(C(=O)[C@H](C)CS)C1"
  IC50 [nM]: 3
- test.smiles: "C[C@H](CS)C(=O)N1C[C@@H](Sc2ccc(Cl)cc2)C[C@H]1C(=O)O"
  IC50 [nM]: 11
- test.smiles: "C[C@H](N[C@@H](CCc1ccccc1)C(=O)O)C(=O)N1C[C@@H](c2ccccc2)C[C@H]1C(=O)O"
  IC50 [nM]: 5
- test.smiles: "C[C@H](CS)C(=O)N1C[C@@H](S(=O)(=O)c2ccccc2)C[C@H]1C(=O)O"
  IC50 [nM]: 28

(A) C[C@H](CS)C(=O)N1CC2(C[C@H]1C(=O)O)OCCO2
(B) C[C@H]1C[C@@H](C(=O)O)N(C(=O)[C@H](C)CS)C1
Endpoint returns whichever of A and B has the numerically higher IC50. Pick one; state its label.
A
